- MEASURED ON: AMPKα2 kinase domain (α2KD), WT (Homo sapiens)
- Construct: human AMPK-α2 KD (α2KD; residues 6 to 280); made in house; host or cells: E. coli BL21(DE3)-RIL
- Sequence (P54646 6-280): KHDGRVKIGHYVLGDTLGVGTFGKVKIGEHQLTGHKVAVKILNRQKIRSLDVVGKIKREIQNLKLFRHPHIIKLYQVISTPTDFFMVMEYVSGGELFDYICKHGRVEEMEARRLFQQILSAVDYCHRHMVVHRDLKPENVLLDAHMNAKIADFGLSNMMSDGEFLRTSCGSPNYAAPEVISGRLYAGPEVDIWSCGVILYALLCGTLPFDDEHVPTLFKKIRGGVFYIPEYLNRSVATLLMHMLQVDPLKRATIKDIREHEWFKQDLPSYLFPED
- EXPERIMENTAL PROTOCOL: Spectral shift (Dianthus) binding assay
- EXPERIMENTAL CONDITIONS: +3 mM DTT; read-out: dissociation constant (Kd)
READOUT KIND: Kd (µM)
Answers are plain numbers, in µM.

Exercise: Which Kd reading was recorded for the molecule CCc1ccccc1C(=O)Nc1n[nH]c2c(C)c(F)c(C3C(C#N)=C(C)N(C)C(C)=C3C#N)cc12 [BAY-3827] ?
Key: 28.6
